Recorded values, source PubChem BioAssay.

# PROCEDURE DETAILS: Plasmodium falciparum growth inhibition, primary screen, strain 3D7, DAPI fluorescence, 100 nL (AID 1184);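 also: parasites grown inside human red blood cells in medium with human serum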
# MEASUREMENT CONTEXT: P. falciparum 3D7 growth, 3 d, higher = more signal
ASSAY METRIC: z-score

These solved cases illustrate the format of a correct answer.
O=C1NC(=O)C2C1C=CC(C(O)C(c1ccccc1)c1ccccc1)N2Nc1ccccn1 (centres undefined)
-0.315
Cc1ccc(S(=O)(=O)N2[C@@H](c3ccccc3)C(C(=O)O)=CC[C@H]2c2ccc(F)cc2)cc1
-0.204

Your task in this section: give z-score for each listed record.
1. COc1cccc(C)c1NC(=O)O[C@H]1[C@H](OC(=O)Nc2ccccc2-c2ccccc2)[C@@H](OC(=O)Nc2ccccc2-c2ccccc2)[C@@H](OC)O[C@@H]1CO
2. CC(C)[Si](C#Cc1ccccc1)(O[C@H](c1ccccc1)c1cn(Cc2ccccc2)nn1)C(C)C

[-2.26, -1.18]
